Where these numbers come from: ChEMBL document CHEMBL3351815

- EXPERIMENTAL_PROTOCOL: Antiproliferative activity against human C4-2B cells assessed as reduction in proliferation after 24 hrs by [3H]-thymidine incorporation assay
- Format: functional, cell-based
- TEST_CONDITIONS: LNCaP C4-2B
PROPERTY_LABEL: IC50
Please provide the amount together with its unit, number first.

**Query** Request the reported IC50 associated with CCCCCCCCc1ccc(CCC(N)CC(F)(F)P(=O)(O)O)cc1 (stereo unspecified)
**Result** 3000 nM
